Target: T1, human TfR (Homo sapiens, UniProt P02786)
T1 construct: expressed in transfected cells
T1 sequence (P02786 whole entry): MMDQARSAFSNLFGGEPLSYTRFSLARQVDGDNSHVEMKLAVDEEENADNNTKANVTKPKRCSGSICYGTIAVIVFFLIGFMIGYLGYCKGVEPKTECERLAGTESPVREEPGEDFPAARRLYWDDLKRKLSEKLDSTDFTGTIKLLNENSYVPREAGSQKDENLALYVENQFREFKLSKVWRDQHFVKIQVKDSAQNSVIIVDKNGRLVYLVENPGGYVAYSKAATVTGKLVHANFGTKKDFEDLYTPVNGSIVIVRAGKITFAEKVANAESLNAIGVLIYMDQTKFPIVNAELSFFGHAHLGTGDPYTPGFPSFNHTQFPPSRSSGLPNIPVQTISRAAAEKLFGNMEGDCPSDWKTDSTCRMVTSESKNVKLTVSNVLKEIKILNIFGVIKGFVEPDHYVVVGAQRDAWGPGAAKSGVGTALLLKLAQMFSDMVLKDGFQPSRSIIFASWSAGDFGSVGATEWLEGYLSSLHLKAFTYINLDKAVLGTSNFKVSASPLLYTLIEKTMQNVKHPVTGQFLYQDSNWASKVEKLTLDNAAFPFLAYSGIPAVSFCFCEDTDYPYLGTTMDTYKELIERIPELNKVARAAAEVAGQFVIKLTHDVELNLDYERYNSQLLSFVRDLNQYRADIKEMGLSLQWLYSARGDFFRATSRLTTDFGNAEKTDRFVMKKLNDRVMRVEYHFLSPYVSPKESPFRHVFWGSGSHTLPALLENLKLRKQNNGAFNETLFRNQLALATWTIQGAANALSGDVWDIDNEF
Test: Flow cytometry apparent Kd (Kd app) on CHO cells expressing hTfR fused to EGFP
Assay type: binding
Conditions: bioconjugates (siGFPst1, NODAGA, 68Ga), 2 µM to 30 pM, 1 hr at 4°C
Method: After one wash in PBS/BSA 2%, cells were incubated for 1 hr with an anti-6His tag antibody (mouse), washed twice with PBS/BSA 2%, and incubated for 45 min with an Alexa647-conjugated anti-mouse secondary antibody. […] No labeling of the CHO WT control cells was detected with all the tested VHHs (not shown). […]

>  <molecule>
VHH A-68Ga: VHH A-NODAGA radiolabeled using 68Ga chloride (conjugate) VHH: EVQLVESGGGVVQPGGSLKLSCVASGTDFSINFIRWYRQAPGKQREFVAGFTATGNTNYADSMKGRFTISRDNTKNAVYLQIDSLKPEDTAVYYCYMLDKWGQGTQVTVSSAAAEQKLISEEDLNGAAHHHHHHGSAAAHHHHHHGGGLQR

>  <apparent hTfR-binding affinity (Kd app)>
low nanomolar range

$$$$
>  <molecule>
VHH A-siGFPst1: siGFPst1 conjugated to a tagged VHH A (conjugate) VHH: EVQLVESGGGVVQPGGSLKLSCVASGTDFSINFIRWYRQAPGKQREFVAGFTATGNTNYADSMKGRFTISRDNTKNAVYLQIDSLKPEDTAVYYCYMLDKWGQGTQVTVSSAAAEQKLISEEDLNGAAHHHHHHGS

>  <apparent hTfR-binding affinity (Kd app)>
low nanomolar range

$$$$
>  <molecule>
VHH B-siGFPst1: siGFPst1 conjugated to VHH B (conjugate) VHH: EVQLVESGGGVVQPGGSLRLSCAASGEIFSINFMRWYRQAPGKQREWVAGFTRDGSTNYPDSAKGRFTISRDNAKNTVYLQIDSLKPEDTAVYYCYMLDTWGQGTQVTVSSAAAEQKLISEEDLNGAAHHHHHHGS

>  <apparent hTfR-binding affinity (Kd app)>
low nanomolar range

$$$$
>  <molecule>
VHH A-NODAGA: VHH A-azide reacted with NODAGA-BCN (conjugate) VHH: EVQLVESGGGVVQPGGSLKLSCVASGTDFSINFIRWYRQAPGKQREFVAGFTATGNTNYADSMKGRFTISRDNTKNAVYLQIDSLKPEDTAVYYCYMLDKWGQGTQVTVSSAAAEQKLISEEDLNGAAHHHHHHGSAAAHHHHHHGGGLQR

>  <apparent hTfR-binding affinity (Kd app)>
low nanomolar range

$$$$
